IC50 values for the compounds below.
Test system: ER-positive human breast cancer cells MCF7
Test: MTT antiproliferative assay, MCF7 cells
Type: cell-based
Details: Homo sapiens, MCF7, 96 h, read-out: MCF7 IC50 μM
quantity.name: IC50

compound	tested.target	quantity.name	endpoint.value
CC(C)=CCC/C(C)=C/CC/C(C)=C/CC[C@]1(C)CCc2cc(OC(=O)Nc3ccccc3)c(C)c(C)c2O1 [Compound 14]	ER-positive human breast cancer cells MCF7	IC50	> 10 µM
CC(C)=CCC/C(C)=C/CC/C(C)=C/CC[C@]1(C)CCc2c(C)c(OC(=O)Nc3ccccc3)c(C)c(C)c2O1 [Compound 13]	ER-positive human breast cancer cells MCF7	IC50	> 20 µM
CC(C)=CCC/C(C)=C/CC/C(C)=C/CC[C@]1(C)CCc2cc(OC(=O)NC(=O)c3ccccc3)cc(C)c2O1 [Compound 21]	ER-positive human breast cancer cells MCF7	IC50	5.6 µM
CC(C)=CCC/C(C)=C/CC/C(C)=C/CC[C@]1(C)CCc2cc(OC(=O)NCc3ccccc3)c(C)c(C)c2O1 [Compound 17]	ER-positive human breast cancer cells MCF7	IC50	> 10 µM
CC(C)=CCC/C(C)=C/CC/C(C)=C/CC[C@]1(C)CCc2cc(OC(=O)NS(=O)(=O)c3ccc(C)cc3)cc(C)c2O1 [Compound 9]	ER-positive human breast cancer cells MCF7	IC50	> 10 µM
CC(C)=CCC/C(C)=C/CC/C(C)=C/CC[C@]1(C)CCc2c(C)c(OC(=O)NS(=O)(=O)c3ccc(C)cc3)c(C)c(C)c2O1 [Compound 7]	ER-positive human breast cancer cells MCF7	IC50	6.1 µM
CC(C)=CCC/C(C)=C/CC/C(C)=C/CC[C@]1(C)CCc2cc(OC(=O)NS(=O)(=O)c3ccc(C)cc3)c(C)c(C)c2O1 [Compound 8]	ER-positive human breast cancer cells MCF7	IC50	5.1 µM
CC(C)=CCC/C(C)=C/CC/C(C)=C/CC[C@]1(C)CCc2cc(OC(=O)NCc3ccccc3)cc(C)c2O1 [Compound 18]	ER-positive human breast cancer cells MCF7	IC50	> 10 µM
CC(C)=CCC/C(C)=C/CC/C(C)=C/CC[C@]1(C)CCc2cc(OC(=O)NC(=O)c3ccccc3)c(C)c(C)c2O1 [Compound 20]	ER-positive human breast cancer cells MCF7	IC50	> 10 µM
CC(C)=CCC/C(C)=C/CC/C(C)=C/CC[C@]1(C)CCc2c(C)c(OC(=O)NCc3ccccc3)c(C)c(C)c2O1 [Compound 16]	ER-positive human breast cancer cells MCF7	IC50	> 20 µM
CC(C)=CCC/C(C)=C/CC/C(C)=C/CC[C@]1(C)CCc2cc(OC(=O)NS(=O)(=O)c3ccc(Cl)cc3)cc(C)c2O1 [Compound 12]	ER-positive human breast cancer cells MCF7	IC50	> 10 µM
CC(C)=CCC/C(C)=C/CC/C(C)=C/CC[C@]1(C)CCc2cc(OC(=O)Nc3ccccc3)cc(C)c2O1 [Compound 15]	ER-positive human breast cancer cells MCF7	IC50	> 10 µM
CC(C)=CCC/C(C)=C/CC/C(C)=C/CC[C@]1(C)CCc2c(C)c(OC(=O)NC(=O)c3ccccc3)c(C)c(C)c2O1 [Compound 19]	ER-positive human breast cancer cells MCF7	IC50	> 20 µM
CC(C)=CCC/C(C)=C/CC/C(C)=C/CC[C@]1(C)CCc2c(C)c(OC(=O)NS(=O)(=O)c3ccc(Cl)cc3)c(C)c(C)c2O1 [Compound 10]	ER-positive human breast cancer cells MCF7	IC50	2.4 µM
CC(C)=CCC/C(C)=C/CC/C(C)=C/CC[C@]1(C)CCc2cc(OC(=O)NS(=O)(=O)c3ccc(Cl)cc3)c(C)c(C)c2O1 [Compound 11]	ER-positive human breast cancer cells MCF7	IC50	> 10 µM
